test summary: Half life in Sprague-Dawley rat at 1 mg/kg, iv
Format: ADME, organism-based
Set-up: dose 1 mg/kg, route intravenous
measurement setup: in vivo
Below is a list of entries, each paired with its recorded half-life value.

| compound smiles | half-life (h) |
| --- | --- |
| CC(C)(C)c1nnc(-c2nn(-c3ccccc3Cl)c(-c3ccc(Br)cc3)c2Cn2cncn2)s1 | 5.3 |
| C[C@H](NC(=O)C(C)(C)Oc1ccc(C(F)(F)F)cn1)[C@@H](Cc1ccc(Cl)cc1)c1cccc(C#N)c1 | 2.76 |
| Cc1c(C(=O)NN2CCCCC2)nn(-c2ccc(Cl)cc2Cl)c1-c1ccc(Cl)cc1 | 3.09 |

====

pIC50: −log10 of the molar value.
Below are pIC50 values recorded for Voltage-gated inwardly rectifying potassium channel KCNH2 (Homo sapiens, UniProt Q12809).

| compound smiles | sign | pIC50 |
| --- | --- | --- |
| C[C@H](NC(=O)C(C)(C)Oc1ccc(C(F)(F)F)cn1)[C@@H](Cc1ccc(Cl)cc1)c1cccc(C#N)c1 | = | 4.85 |
| CC(C)(C)c1nnc(-c2nn(-c3ccccc3Cl)c(-c3ccc(Br)cc3)c2Cn2cncn2)s1 | = | 4.98 |
| Cc1c(C(=O)NN2CCCCC2)nn(-c2ccc(Cl)cc2Cl)c1-c1ccc(Cl)cc1 | = | 5.32 |
| FC(F)(F)C1(c2nnc(-c3nn(-c4ccc(Cl)cc4Cl)c(-c4ccc(Cl)cc4)c3Cn3cncn3)s2)CCC1 | < | 5.00 |

====

Tested on: Mus musculus
test summary: Antiobesity activity in diet-induced obesity C57BL/6 mouse model assessed as reduction of body weight at 10 mg/kg, po qd for 14 days
Format: functional
Parameters: scale not given: the % may be the effect or the level left

| compound smiles | Activity, % |
| --- | --- |
| Clc1ccc(-c2c(Cn3cncn3)c(-c3nnc(C4(c5ccc(Cl)cc5)CC4)s3)nn2-c2ccc(Cl)cc2Cl)cc1 | 23.68 |
| FC(F)(F)C1(c2nnc(-c3nn(-c4ccc(Cl)cc4Cl)c(-c4ccc(Br)cc4)c3Cn3cncn3)s2)CCC1 | 23.68 |
| FC(F)(F)c1ccccc1-n1nc(-c2nnc(C3(C(F)(F)F)CCC3)s2)c(Cn2cncn2)c1-c1ccc(Cl)cc1 | 23.68 |
| C[C@H](NC(=O)C(C)(C)Oc1ccc(C(F)(F)F)cn1)[C@@H](Cc1ccc(Cl)cc1)c1cccc(C#N)c1 | 29.55 |
| Clc1ccc(C2(c3nnc(-c4nn(-c5ccc(Cl)cc5Cl)c(-c5ccc(Br)cc5)c4Cn4cncn4)s3)CC2)cc1 | 23.68 |
| Clc1ccc(-c2c(Cn3cncn3)c(-c3nnc(C4(c5ccccc5)CC4)s3)nn2-c2ccc(Cl)cc2Cl)cc1 | 23.68 |

====

experimental system: Cytochrome P450 1A2 (Homo sapiens, UniProt P05177)
Sequence (P05177 whole entry): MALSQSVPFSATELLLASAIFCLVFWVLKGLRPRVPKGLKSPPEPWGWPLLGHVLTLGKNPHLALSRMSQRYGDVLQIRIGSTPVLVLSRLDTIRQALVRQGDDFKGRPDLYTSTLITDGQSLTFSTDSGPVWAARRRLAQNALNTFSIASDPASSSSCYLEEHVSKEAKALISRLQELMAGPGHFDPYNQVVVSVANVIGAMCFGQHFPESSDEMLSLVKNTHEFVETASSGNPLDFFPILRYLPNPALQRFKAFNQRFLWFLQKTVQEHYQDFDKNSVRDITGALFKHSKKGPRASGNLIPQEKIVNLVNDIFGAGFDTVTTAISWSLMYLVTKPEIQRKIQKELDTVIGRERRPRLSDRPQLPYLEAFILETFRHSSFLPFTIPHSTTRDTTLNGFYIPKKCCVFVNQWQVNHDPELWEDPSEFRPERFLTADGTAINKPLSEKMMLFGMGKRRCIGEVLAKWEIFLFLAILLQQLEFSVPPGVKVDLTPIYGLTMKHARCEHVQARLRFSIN
Listing of entries alongside the reported IC50.

| compound smiles | experimental system | IC50 |
| --- | --- | --- |
| CC(C)(C)c1nnc(-c2nn(-c3ccc(Cl)cc3Cl)c(-c3ccc(Br)cc3)c2Cn2cncn2)s1 | Cytochrome P450 1A2 (Homo sapiens, UniProt P05177) | 2.7 µM |
| C[C@H](NC(=O)C(C)(C)Oc1ccc(C(F)(F)F)cn1)[C@@H](Cc1ccc(Cl)cc1)c1cccc(C#N)c1 | Cytochrome P450 1A2 (Homo sapiens, UniProt P05177) | > 20 µM |
| Cc1c(C(=O)NN2CCCCC2)nn(-c2ccc(Cl)cc2Cl)c1-c1ccc(Cl)cc1 | Cytochrome P450 1A2 (Homo sapiens, UniProt P05177) | > 20 µM |
| FC(F)(F)C1(c2nnc(-c3nn(-c4ccc(Cl)cc4Cl)c(-c4ccc(Cl)cc4)c3Cn3cncn3)s2)CCC1 | Cytochrome P450 1A2 (Homo sapiens, UniProt P05177) | > 20 µM |
| CC(C)(C)c1nnc(-c2nn(-c3ccccc3Cl)c(-c3ccc(Br)cc3)c2Cn2cncn2)s1 | Cytochrome P450 1A2 (Homo sapiens, UniProt P05177) | > 20 µM |
